For each record, write down the corresponding k2.
Target: T1, autolytically stable caspase-1 variant (D381 E) (UniProt P29466 120-404, limits assumed)
T1 sequence (looked up): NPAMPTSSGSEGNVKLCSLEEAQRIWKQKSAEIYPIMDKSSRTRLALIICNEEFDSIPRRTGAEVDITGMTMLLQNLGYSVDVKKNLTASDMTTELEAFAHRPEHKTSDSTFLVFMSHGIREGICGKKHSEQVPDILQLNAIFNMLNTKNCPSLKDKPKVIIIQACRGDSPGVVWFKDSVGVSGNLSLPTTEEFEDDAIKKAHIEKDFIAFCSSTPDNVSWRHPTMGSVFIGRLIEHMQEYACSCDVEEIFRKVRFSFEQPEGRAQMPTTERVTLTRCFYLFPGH
Assay: cell-based or functional assay
Numbered stars: 1 amine (or outer) side, 2 acyl side, 3 side chain; on linkers, the order of the positions; unused ones are H or OH. Square brackets hold non-standard residues; d marks the D form. * marks the point of attachment. AAsp = aza-Asp, O=C(N(CC(=O)[*:3])N[*:1])[*:2]; azaAsp = O=C(N(CC(=O)[*:3])N[*:1])[*:2]; PhPr = N-terminal cap as named (PhPr); Hydrocinnamoyl = O=C(CCc1ccccc1)*; Cbz = O=C(OCc1ccccc1)*
Please give a number only; it is taken to be in M⁻¹ s⁻¹.

Answer with reported k2 of Cbz-IET[azaAsp]-{(2R,3R)‑EP‑COOEt} [Cbz-Ile-Glu-Thr-AAsp-(2R,3R)-EP-COOEt]
13300

Answer with reported k2 of Hydrocinnamoyl-Val-Ala-[AAsp]-{(S,S)‑EP‑COOEt} [PhPr-Val-Ala-AAsp-(S,S)-EP-COOEt]
32200

Answer with reported k2 of Hydrocinnamoyl-Val-Ala-[AAsp]-{(R,R)‑EP‑CONHCH2Ph} [PhPr-Val-Ala-AAsp-(R,R)-EP-CONHCH2Ph]
1630

Answer with reported k2 of Cbz-IET[azaAsp]-{(S,S)‑EP‑COOCH2Ph} [Cbz-Ile-Glu-Thr-AAsp-(S,S)-EP-COOCH2Ph]
45800

Answer with reported k2 of PhPr-Val-Ala-[AAsp]-{(S,S)‑EP‑CO-Tyr-NH2} [PhPr-Val-Ala-AAsp-(S,S)-EP-CO-Tyr-NH2]
3240

Answer with reported k2 of Cbz-Glu-Val-[azaAsp]-{(S,S)‑EP‑CONHCH2CH2Ph} [Cbz-Glu-Val-AAsp-(S,S)-EP-CONHCH2CH2Ph]
41100
